- assayed.target: HLA-DRB1*04:01 (Homo sapiens, UniProt P01903+P01911, A100K/A169T/F76Y/I96L/K127E/L162R/M171V/N62H/P40V/Q125Y/R42H/S133A/S149N/S66Y/V115G/V209L/W38E)
- Construct: EBV transformed homozygous cell lines were used as sources of MHC molecules; endogenous in cells; host or cells: EBV transformed homozygous cell lines
- protocol.text: HLA class II peptide binding, inhibition of radiolabeled peptide binding to purified MHC
- condition.notes: citrullinated 15-mer peptide (X = citrulline); purified HLA-DRB1*04:01; read-out: DRB1*04:01 binding capacity, Cit peptide (IC50 nM)
Square brackets hold non-standard residues; d marks the D form. Peptide text beside a SMILES is read from it. Cit = NC(=O)NCCC[C@H](N)C(=O)O
readout.kind: IC50

compound | IC50
CC(C)C[C@H](NC(=O)CNC(=O)[C@H](CCC(N)=O)NC(=O)[C@H](C)NC(=O)CN)C(=O)N[C@@H](CCC(N)=O)C(=O)NCC(=O)N1CCC[C@H]1C(=O)N[C@@H](CCCNC(N)=O)C(=O)NCC(=O)N[C@@H](CC(C)C)C(=O)N1CCC[C@H]1C(=O)NCC(=O)N[C@H](C(=O)N1CCC[C@H]1C(=O)O)[C@@H](C)O [GAQGLQGPXGLPGTP] (H-GAQGLQGP[Cit]GLPGTP-OH) | > 40000 nM
CSCC[C@H](NC(=O)[C@H](CCC(=O)O)NC(=O)[C@H](CCCNC(=N)N)NC(=O)[C@H](CCSC)NC(=O)[C@H](CCC(N)=O)NC(=O)[C@H](CCCNC(N)=O)NC(=O)[C@H](CCC(=O)O)NC(=O)[C@H](CC(C)C)NC(=O)[C@H](CO)NC(=O)[C@H](CCC(=O)O)NC(=O)[C@H](CC(N)=O)NC(=O)[C@@H](N)[C@@H](C)O)C(=O)N[C@@H](CCC(=O)O)C(=O)N[C@@H](CCC(=O)O)C(=O)N[C@@H](CC(N)=O)C(=O)O [TNESLEXQMREMEEN] (H-TNESLE[Cit]QMREMEEN-OH; N-terminus and C-terminus assumed) | > 40000 nM
C[C@H](NC(=O)CNC(=O)[C@H](C)NC(=O)[C@@H]1CCCN1C(=O)CNC(=O)[C@@H](NC(=O)[C@H](CCCNC(=N)N)NC(=O)CNC(=O)[C@H](CCCNC(=N)N)NC(=O)[C@@H](N)CCC(=O)O)[C@@H](C)O)C(=O)N[C@@H](C)C(=O)NCC(=O)N[C@@H](C)C(=O)N[C@@H](CCCNC(N)=O)C(=O)NCC(=O)O [ERGRTGPAGAAGAXG] (H-ERGRTGPAGAAGA[Cit]G-OH) | > 40000 nM
CC(C)[C@H](NC(=O)[C@H](CC(=O)O)NC(=O)[C@H](CCCCN)NC(=O)[C@H](CC(=O)O)NC(=O)[C@H](CC(N)=O)NC(=O)[C@H](Cc1ccc(O)cc1)NC(=O)[C@H](CCCNC(N)=O)NC(=O)[C@H](CCC(N)=O)NC(=O)CNC(=O)[C@H](CC(=O)O)NC(=O)[C@@H](N)CCC(N)=O)C(=O)N[C@@H](Cc1c[nH]c2ccccc12)C(=O)N[C@@H](CCCCN)C(=O)N1CCC[C@H]1C(=O)N[C@@H](CCC(=O)O)C(=O)O [QDGQXYNDKDVWKPE] (H-QDGQ[Cit]YNDKDVWKPE-OH; N-terminus and C-terminus assumed) | > 40000 nM

Request: Fill in: IC50 of CC(C)C[C@H](NC(=O)CNC(=O)[C@H](CCC(N)=O)NC(=O)[C@@H]1CCCN1C(=O)CNC(=O)[C@@H]1CCCN1C(=O)[C@@H]1CCCN1C(=O)CNC(=O)[C@H](CCC(=O)O)NC(=O)[C@H](C)NC(=O)CN)C(=O)N[C@@H](C)C(=O)NCC(=O)N[C@@H](CCC(N)=O)C(=O)N[C@@H](CCCNC(N)=O)C(=O)O [GAEGPPGPQGLAGQX] (H-GAEGPPGPQGLAGQ[Cit]-OH; N-terminus and C-terminus assumed) is ___
Result: > 40000 nM
